Reported pKd against Receptor-interacting serine/threonine-protein kinase 2 (Homo sapiens, UniProt O43353), gathered from multiple publications, appears below.
Sequence (O43353 whole entry): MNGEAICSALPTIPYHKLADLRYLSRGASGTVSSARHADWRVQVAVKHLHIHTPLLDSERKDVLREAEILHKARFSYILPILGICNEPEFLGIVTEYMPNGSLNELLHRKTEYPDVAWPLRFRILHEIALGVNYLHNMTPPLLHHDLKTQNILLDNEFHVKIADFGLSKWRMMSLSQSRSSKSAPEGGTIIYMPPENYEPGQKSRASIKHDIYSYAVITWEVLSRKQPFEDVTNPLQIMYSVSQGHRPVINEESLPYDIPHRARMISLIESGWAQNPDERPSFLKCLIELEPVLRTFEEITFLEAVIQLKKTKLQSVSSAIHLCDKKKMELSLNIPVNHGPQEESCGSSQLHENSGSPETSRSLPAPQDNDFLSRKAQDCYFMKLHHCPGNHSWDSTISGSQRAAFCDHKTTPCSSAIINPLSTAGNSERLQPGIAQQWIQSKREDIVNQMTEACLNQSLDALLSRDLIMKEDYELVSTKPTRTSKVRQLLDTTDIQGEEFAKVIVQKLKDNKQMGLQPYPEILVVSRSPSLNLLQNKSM
Scale: pKd equals -log10([C]), with [C] in mol/L.

Req: Dear colleague, I am looking for the recorded pKd of the following molecule: `C=CC(=O)N1CCC[C@H](n2c(=O)n(-c3ccc(Oc4ccccc4)cc3)c3c(N)ncnc32)C1`
Resp: 8.15

Req: If you can, please state the reported pKd value of `O=S1(=O)C=C(c2ccccc2)c2cc3ncnc(Nc4ccc5scnc5c4)c3cc21` .
Resp: 6.96

Req: What value of pKd has been reported for the following molecule? `O=S1(=O)C=C(C2CC2)c2cc3ncnc(Nc4ccc5scnc5c4)c3cc21`
Resp: 8.48

Req: Quick check: pKd of `COc1cc2nccc(Nc3cc(OC)c(OC)c(OC)c3)c2cc1OC` ?
Resp: 7.38

Req: Look up pKd: `Cc1[nH]nc(Nc2ncnc3cc4c(cc23)S(=O)(=O)C=C4C2CC2)c1C`
Resp: 8.00

Req: Bench note: what pKd did `COc1cc(Nc2ccnc3ccc(C(C)(C)C)cc23)cc(OC)c1OC` show?
Resp: 6.17

Req: Report pKd for `COc1ccc2nccc(Nc3cc(OC)c(OC)c(OC)c3)c2c1` please.
Resp: 6.77

Req: What measured pKd goes with `O=S1(=O)C=C(C2CC2)c2cc3ncnc(Nc4cc(O)ccc4F)c3cc21` ?
Resp: 7.85

Req: So what's the measured pKd for this one? `CC1=C(C)S(=O)(=O)c2cc3c(Nc4ccc5scnc5c4)ncnc3cc21`
Resp: 8.09

Req: Please give the measured pKd for this molecule: `COc1cc(Nc2ccnc3ccc(Br)cc23)cc(OC)c1OC`
Resp: 6.96
